# assay details: Residual parent lipid levels in the liver of mice (hEPO mRNA LNP)
# Type: in vivo
# settings: CD-1 mice
quantity measured: Parent Lipid Remaining at 24 h (nmol/g liver tissue)

>>> print(df.to_string())
                        structure_as_smiles     units_of_measure  assay_result
0  CCCCCC(CCCCC)CCOC(=O)CCCCCCCN(CCCCCCCC(=O)OCCC(CCCC)CCCC)CCCNc1c(NC)c(=O)c1=O  nmol/g liver tissue            12
1  CCCCCC(CCCCC)OC(=O)CCCCCCCN(CCCCCCCC(=O)OCCC(CCCC)CCCC)CCCNc1c(NC)c(=O)c1=O  nmol/g liver tissue           5.1

(I) CCCCCC(CCCCC)CCOC(=O)CCCCCCCN(CCCCCCCC(=O)OCCC(CCC)CCC)CCCNc1c(NC)c(=O)c1=O
(II) CCCCCCC(CCCCCC)OC(=O)CCCCCCCN(CCCCCCCC(=O)OCCC(CCCC)CCCC)CCCNc1c(NC)c(=O)c1=O
INPUT: Higher Parent Lipid Remaining at 24 h: I or II ? Answer by stating the label of the chosen item.
OUTPUT: II
